Test system: HXB2 site-directed mutant M41L, T69S-SG, T215Y
Type: cell-based
Particulars: virus M41L
The molecules listed here are annotated with their Fold resistance in IC50 relative to HXB2.
Reply numerically in fold, unit not repeated.

| Compound Structure | Output Unit | Numeric Result |
| --- | --- | --- |
| Nc1nc(NC2CC2)c2ncn([C@H]3C=C[C@@H](CO)C3)c2n1 | fold | 9.6 |
| Cc1cn([C@H]2C=C[C@@H](CO)O2)c(=O)[nH]c1=O | fold | 4.0 |
| Nc1ccn([C@H]2CC[C@@H](CO)O2)c(=O)n1 | fold | 2.8 |

Incoming: # get_value(readout='Fold resistance in IC50 relative to HXB2', item= `O=c1[nH]cnc2c1ncn2[C@H]1CC[C@@H](CO)O1` )
Outgoing: 5.0

Incoming: # get_value(readout='Fold resistance in IC50 relative to HXB2', item= `Nc1ccn([C@@H]2CS[C@H](CO)O2)c(=O)n1` )
Outgoing: 11.3
